B1: Spectrin alpha chain, erythrocytic 1, residues 979 to 1036; numbered along this chain, P02549 (parent)
chain: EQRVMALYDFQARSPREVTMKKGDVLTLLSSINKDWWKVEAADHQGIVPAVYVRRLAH

Variants of: B1
PROTOCOL DETAILS: abundance fitness (aPCA) (normalised: wild type 0, dead -1); higher = more abundant; growth selection in yeast, the domain comes from the species named
EXPERIMENTAL PARAMETERS: Homo sapiens
Please note: 1 applies when abundance fitness is -0.2 or greater, and -1 applies otherwise.

# VARIANT IDENTIFIER, GROUP
data = [
    ("K38S", -1),
    ("L26I", -1),
    ("V48G", -1),
    ("D35M", -1),
    ("Q2R", -1),
    ("D9L", -1),
    ("Q11Y", 1),
    ("A6V", -1),
    ("D9S", -1),
    ("D35S", 1),
    ("N33D", 1),
    ("V4C", -1),
    ("A6C", 1),
    ("V51R", 1),
    ("K38R", 1),
    ("D43S", 1),
    ("R54W", -1),
    ("Q2A", 1),
    ("R3M", -1),
    ("M5I", 1),
    ("A6G", -1),
    ("M5V", 1),
    ("P15S", 1),
    ("V4Q", 1),
    ("Y52G", -1),
    ("S14A", -1),
    ("V18K", -1),
    ("L26G", -1),
    ("M20L", -1),
    ("Q11G", -1),
    ("S30A", -1),
    ("D35P", -1),
    ("H44L", -1),
    ("M20P", -1),
    ("V48T", -1),
    ("K21P", -1),
    ("S30E", 1),
    ("R16A", 1),
    ("D43N", 1),
    ("D9R", -1),
    ("F10V", -1),
    ("V51I", 1),
    ("A41L", -1),
    ("D35Q", -1),
    ("Q2H", 1),
    ("D24T", 1),
    ("S31K", 1),
    ("A50V", -1),
    ("P49W", -1),
    ("N33G", -1),
    ("I47V", 1),
    ("S31Y", -1),
    ("V4P", -1),
    ("K38P", -1),
    ("K34Q", -1),
    ("D35K", 1),
    ("S14L", -1),
    ("D43A", -1),
    ("D35L", -1),
    ("A42H", 1),
    ("K22C", -1),
    ("Y52T", -1),
    ("S14H", -1),
    ("A42Q", 1),
    ("A50L", -1),
    ("T27V", -1),
    ("K38M", 1),
    ("S31C", 1),
    ("K38T", 1),
    ("H44W", -1),
    ("A12P", -1),
    ("R54G", -1),
    ("E17L", -1),
    ("A42N", 1),
    ("V51Q", 1),
    ("V18M", -1),
    ("M5T", -1),
    ("R13W", -1),
    ("Q2G", 1),
    ("L26F", -1),
    ("K38A", -1),
    ("H44M", 1),
    ("H58R", 1),
    ("S14Q", -1),
    ("V39K", -1),
    ("T27L", -1),
    ("K34P", 1),
    ("R54K", 1),
    ("R13A", -1),
]
